target: Dual specificity protein phosphatase 6 (Homo sapiens) (UniProt Q16828); assay: Primary imaging screen for DUSP6 inhibitors that restore phospho-Erk in transfected HeLa cells, chemical complementation (AID 609); conditions: HeLa MKP-3 transfected, phospho-Erk imaging KS statistic, at 10 µM, hits give high values;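 also: phospho-Erk level distribution per well compared with pooled transfected vehicle control wells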
Sequence (Q16828 whole entry, looked up): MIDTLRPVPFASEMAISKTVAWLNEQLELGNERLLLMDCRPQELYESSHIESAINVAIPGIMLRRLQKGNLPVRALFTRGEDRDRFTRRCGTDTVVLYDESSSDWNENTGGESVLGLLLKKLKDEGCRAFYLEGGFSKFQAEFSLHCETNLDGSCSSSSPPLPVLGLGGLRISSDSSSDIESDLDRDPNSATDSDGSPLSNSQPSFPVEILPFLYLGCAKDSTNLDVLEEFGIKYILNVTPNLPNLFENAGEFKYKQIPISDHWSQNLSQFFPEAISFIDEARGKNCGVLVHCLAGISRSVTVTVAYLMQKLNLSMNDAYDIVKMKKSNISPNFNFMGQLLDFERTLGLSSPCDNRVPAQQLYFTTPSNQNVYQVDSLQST
Quick list: inhibition per entry.
measured.endpoint: inhibition (%)

# molecule, endpoint.value
rows = [
    ("CNCCc1nc(N)n[nH]1", 27.8),
    ("CC(C)OC(=O)c1c(N)n(Cc2ccco2)c2nc3ccccc3nc12", -4.7),
    ("CC(NC(C)(C)C)C(=O)c1cccc(Cl)c1 (centres undefined)", 12.4),
    ("CC(C)[C@@]1(NC(=O)[C@@H]2C=C3c4cccc5[nH]cc(c45)C[C@H]3N(C)C2)O[C@@]2(O)[C@@H]3CCCN3C(=O)[C@H](Cc3ccccc3)N2C1=O", 10.2),
    ("CC(=O)CC(C)(C)n1c[n+](C)nn1", -5.89),
    ("COCCOC(=O)C1=C(N)Oc2c(c(=O)oc3ccccc23)[C@@]12C(=O)Nc1ccccc12", -2.29),
    ("O=C1NCCN2CCCC12 (centres undefined)", -0.608),
    ("COCCOC(=O)c1c(N)n(Cc2ccco2)c2nc3ccccc3nc12", 0.671),
    ("COc1cccc(-n2c(O)c(C=NCCN3CCOCC3)c(=O)[nH]c2=O)c1", -5.26),
]
